- Tested on: Escherichia coli
- METHOD_NOTES: Antibacterial activity against Escherichia coli MTCC 51 at 10 ug/ml after 24 hr by agar well diffusion method
- Format: functional
The source made the active and inactive calls. The rule behind the calls is not given here.
PROPERTY_LABEL: diameter of the inhibition zone (DIZ)

Worked examples, 5 compounds total:
Clc1ccc2oc(-c3cccnc3)nc2c1; 12.66%
O=[N+]([O-])c1ccc(-c2nc3cc(Cl)ccc3o2)cc1; inactive
COc1cc(-c2nc3cc(Cl)ccc3o2)ccc1O; 9.33%
Cc1ccc(-c2nc3cc(Cl)ccc3o2)s1; inactive
O=C(N[C@H](CO)[C@H](O)c1ccc([N+](=O)[O-])cc1)C(Cl)Cl; 20.33%

compound "c1csc(-c2nc3ccccc3o2)c1" , diameter of the inhibition zone (DIZ) observed: 11.66%

====

- Test system: Aspergillus niger
- METHOD_NOTES: Antifungal activity against Aspergillus niger at 100 ug/ml after 96 hr
- Format: functional
Please map values of inhibition at 100 µg/mL to classes as shown: low (below 20%), medium (20% to below 70%), high (70% or more)

(Q) Hey, which category is "O=[N+]([O-])c1ccc(-c2nc3cc(Cl)ccc3o2)cc1" in, do you know?
(A) high

(Q) # bin lookup: classify "COc1cc(-c2nc3cc(Cl)ccc3o2)ccc1O" by its inhibition at 100 µg/mL
(A) medium

(Q) Form field 'band' for "Clc1ccc2oc(-c3cccs3)nc2c1"
(A) low

(Q) # classify by inhibition at 100 µg/mL band: "Cc1ccc(-c2nc3cc(Cl)ccc3o2)cc1"
(A) medium

(Q) Each compound maps to one class by inhibition at 100 µg/mL. Which class for "c1csc(-c2nc3ccccc3o2)c1" ?
(A) high

(Q) Into which bin does this compound go? "Clc1ccc2oc(-c3ccccc3)nc2c1"
(A) medium

(Q) # bin lookup: classify "Cc1ccsc1-c1nc2cc(Cl)ccc2o1" by its inhibition at 100 µg/mL
(A) high

(Q) Tag the class for C[C@@H]1C[C@@H]([C@H](O)CC2CC(=O)NC(=O)C2)C(=O)[C@@H](C)C1 [CYCLOHEXIMIDE]
(A) medium

(Q) Returns: class label. Input: "Cc1ccc(-c2nc3ccccc3o2)s1"
(A) low

(Q) Please report the category associated with "Clc1ccc2oc(-c3cccnc3)nc2c1" , nothing else.
(A) high

====

- System: Pseudomonas putida
- METHOD_NOTES: Antibacterial activity against Pseudomonas putida at 50 ug/ml after 24 hr by agar well diffusion method
- Type: functional
Field: diameter of the inhibition zone (DIZ). Provide a value for each of the molecules that follow.
# unit: % | format: bare number

The reported diameter of the inhibition zone (DIZ) of the molecule O=C(N[C@H](CO)[C@H](O)c1ccc([N+](=O)[O-])cc1)C(Cl)Cl [CHLORAMPHENICOL] was 43.4

molecule "O=[N+]([O-])c1ccc(-c2nc3cc(Cl)ccc3o2)cc1" , diameter of the inhibition zone (DIZ) observed: 18.13

Documented diameter of the inhibition zone (DIZ) of "Cc1ccc(-c2nc3cc(Cl)ccc3o2)cc1" : 54.56

The value of diameter of the inhibition zone (DIZ) measured for the molecule "Cc1ccsc1-c1nc2cc(Cl)ccc2o1" turned out to be 25.67

Reported diameter of the inhibition zone (DIZ) of "Clc1ccc2oc(-c3cccs3)nc2c1" : 33.66

diameter of the inhibition zone (DIZ) in this record for "Cc1ccc(-c2nc3cc(Cl)ccc3o2)s1" : 18.33

For reference, reported diameter of the inhibition zone (DIZ) for "Clc1ccc2oc(-c3cccnc3)nc2c1" stands at 25.33

Consider "c1csc(-c2nc3ccccc3o2)c1" . Its measured diameter of the inhibition zone (DIZ) is 24.34

Recorded diameter of the inhibition zone (DIZ) (molecule "Clc1ccc2oc(-c3ccccc3)nc2c1" ): 57.66

Measured diameter of the inhibition zone (DIZ) of "COc1cc(-c2nc3cc(Cl)ccc3o2)ccc1O" : 26.33

So for "Cc1ccc(-c2nc3ccccc3o2)s1" , the logged diameter of the inhibition zone (DIZ) turned out to be 22.33
